Provenance of the data: PubChem BioAssay (NCATS)

- Measured Target: Aldehyde dehydrogenase 1A1 (Homo sapiens) (UniProt P00352)
- Experiment Notes: qHTS for Inhibitors of the Aldehyde Dehydrogenase Family (ALDH1A1) Confirmatory screens (AID 2061316); note: nearly all actives have a fitted effect of over 65% in size
- Protocol Conditions: ALDH inhibition qHTS; series mostly up to 47.3 µM
Records with an inconclusive call do not appear. Active and inactive are the calls of the source. Calls come from the whole dose curve; as a rule, active = well fitted inhibition curve with a large enough effect; inconclusive = small, poorly fitted or top-dose-only effect; inactive = no such curve, though single readings can be large or run the other way.
Classes used: active, inactive

{"columns": ["Structure Notation", "Category"],
 "data": [
  ["Cc1nc(C)c(-c2ccc3ncnc(NCc4ncc[nH]4)c3c2)s1", "inactive"],
  ["CCc1nn2c(=O)cc(-c3ccncc3)nc2s1", "inactive"],
  ["O=C(O)/C=C/c1ccc(O)c(O)c1", "inactive"],
  ["Cc1csc2c(N[C@@H](C)CN3CCN(S(=O)(=O)c4ccc(Cl)c(Cl)c4)CC3)ncnc12", "active"],
  ["O=C(CCCc1ccc2cccnc2n1)NCc1cc(-c2ccc(F)c(C(F)(F)F)c2)no1", "inactive"],
  ["Fc1ccc(CSc2nc3ncc(Br)cc3[nH]2)cc1", "inactive"],
  ["COc1cccc(-c2no[n+]([O-])c2C#N)c1", "inactive"],
  ["CC(C)(C)OC(=O)N1CCN(c2ccc(NCc3cncc(-c4ccc(C#N)cc4)c3)cc2)CC1", "inactive"]
]}
